tested on: A549; experiment: Antiproliferative activity against human A549 cells after 72 hrs by MTT assay; format: functional, cell-based; conditions: A549, 72 h
Measure: pIC50
Please keep in mind that pIC50 is minus log10 of the molar concentration; only the number is needed.

Please review the entries below; each comes with its answer.
Dear colleague, please send me the reported pIC50 for C=CC(=O)Nc1ccc(C(=O)/C=C/c2ccccc2Br)cc1 when you can.
5.36

Query pIC50 for C=CC(=O)Nc1ccc(C(=O)/C=C/c2ccccc2Cl)cc1
5.49

Output pIC50 of C=CC(=O)Nc1ccc(C(=O)/C=C/c2cc(OC)c(OC)c(OC)c2)cc1
5.40

***
// fetch pIC50 given entry COc1cc(O)c(CC=C(C)C)c(O)c1C(=O)/C=C/c1ccc(O)cc1
4.92
